- system: IGF-1 Receptor (Homo sapiens)
- Sequence (P08069 31-1367): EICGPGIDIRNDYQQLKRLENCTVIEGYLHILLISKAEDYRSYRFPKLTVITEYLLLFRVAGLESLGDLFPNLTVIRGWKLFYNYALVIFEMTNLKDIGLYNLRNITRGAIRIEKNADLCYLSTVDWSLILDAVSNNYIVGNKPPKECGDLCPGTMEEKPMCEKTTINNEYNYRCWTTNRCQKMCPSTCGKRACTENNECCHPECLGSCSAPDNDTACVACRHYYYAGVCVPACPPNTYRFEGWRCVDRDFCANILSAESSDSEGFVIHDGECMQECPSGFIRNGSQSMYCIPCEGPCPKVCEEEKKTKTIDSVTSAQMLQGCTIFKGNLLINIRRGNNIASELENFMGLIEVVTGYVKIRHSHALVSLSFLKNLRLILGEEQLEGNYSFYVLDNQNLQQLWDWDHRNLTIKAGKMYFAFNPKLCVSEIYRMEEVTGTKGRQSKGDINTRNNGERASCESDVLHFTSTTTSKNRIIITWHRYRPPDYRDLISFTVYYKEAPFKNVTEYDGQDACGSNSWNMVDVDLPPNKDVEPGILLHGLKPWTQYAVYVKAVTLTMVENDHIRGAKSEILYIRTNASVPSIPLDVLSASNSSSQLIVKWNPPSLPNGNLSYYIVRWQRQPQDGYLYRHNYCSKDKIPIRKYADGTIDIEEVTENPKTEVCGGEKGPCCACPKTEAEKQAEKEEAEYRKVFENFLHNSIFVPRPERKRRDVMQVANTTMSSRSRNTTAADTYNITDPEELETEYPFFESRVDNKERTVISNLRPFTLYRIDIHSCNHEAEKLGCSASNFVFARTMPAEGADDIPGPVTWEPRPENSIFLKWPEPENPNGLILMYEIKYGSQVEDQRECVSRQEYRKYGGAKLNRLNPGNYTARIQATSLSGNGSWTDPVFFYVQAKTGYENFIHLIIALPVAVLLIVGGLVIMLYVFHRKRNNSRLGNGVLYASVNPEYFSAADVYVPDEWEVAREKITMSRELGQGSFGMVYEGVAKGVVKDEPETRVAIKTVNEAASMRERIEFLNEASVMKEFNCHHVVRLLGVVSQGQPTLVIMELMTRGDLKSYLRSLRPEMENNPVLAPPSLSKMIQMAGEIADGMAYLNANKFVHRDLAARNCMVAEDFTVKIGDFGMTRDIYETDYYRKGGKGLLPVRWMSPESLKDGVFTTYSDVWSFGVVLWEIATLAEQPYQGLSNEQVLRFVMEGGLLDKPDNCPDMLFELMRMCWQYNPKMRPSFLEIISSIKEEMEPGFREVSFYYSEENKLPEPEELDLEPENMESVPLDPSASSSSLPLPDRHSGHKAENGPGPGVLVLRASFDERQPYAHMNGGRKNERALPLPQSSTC
- assay-details: Cellular IGF-1 Receptor ELISA (3T3/IGF-1R cells)
- measurement-setup: 20 nM IGF-1, serum-free, 2 h drug incubation
readout: IC50

Q: Entry COC(=O)C(c1cccc(Br)c1)c1ncnc2cc(OC)c(OC)cc12 (stereo not shown) has what IC50?
A: > 50 µM

----------
- system: PDGFR-beta (Homo sapiens)
- Construct: the human glioblastoma line U1242 that expresses PDGFR-beta; endogenous in cells
- Sequence (P09619 33-1106): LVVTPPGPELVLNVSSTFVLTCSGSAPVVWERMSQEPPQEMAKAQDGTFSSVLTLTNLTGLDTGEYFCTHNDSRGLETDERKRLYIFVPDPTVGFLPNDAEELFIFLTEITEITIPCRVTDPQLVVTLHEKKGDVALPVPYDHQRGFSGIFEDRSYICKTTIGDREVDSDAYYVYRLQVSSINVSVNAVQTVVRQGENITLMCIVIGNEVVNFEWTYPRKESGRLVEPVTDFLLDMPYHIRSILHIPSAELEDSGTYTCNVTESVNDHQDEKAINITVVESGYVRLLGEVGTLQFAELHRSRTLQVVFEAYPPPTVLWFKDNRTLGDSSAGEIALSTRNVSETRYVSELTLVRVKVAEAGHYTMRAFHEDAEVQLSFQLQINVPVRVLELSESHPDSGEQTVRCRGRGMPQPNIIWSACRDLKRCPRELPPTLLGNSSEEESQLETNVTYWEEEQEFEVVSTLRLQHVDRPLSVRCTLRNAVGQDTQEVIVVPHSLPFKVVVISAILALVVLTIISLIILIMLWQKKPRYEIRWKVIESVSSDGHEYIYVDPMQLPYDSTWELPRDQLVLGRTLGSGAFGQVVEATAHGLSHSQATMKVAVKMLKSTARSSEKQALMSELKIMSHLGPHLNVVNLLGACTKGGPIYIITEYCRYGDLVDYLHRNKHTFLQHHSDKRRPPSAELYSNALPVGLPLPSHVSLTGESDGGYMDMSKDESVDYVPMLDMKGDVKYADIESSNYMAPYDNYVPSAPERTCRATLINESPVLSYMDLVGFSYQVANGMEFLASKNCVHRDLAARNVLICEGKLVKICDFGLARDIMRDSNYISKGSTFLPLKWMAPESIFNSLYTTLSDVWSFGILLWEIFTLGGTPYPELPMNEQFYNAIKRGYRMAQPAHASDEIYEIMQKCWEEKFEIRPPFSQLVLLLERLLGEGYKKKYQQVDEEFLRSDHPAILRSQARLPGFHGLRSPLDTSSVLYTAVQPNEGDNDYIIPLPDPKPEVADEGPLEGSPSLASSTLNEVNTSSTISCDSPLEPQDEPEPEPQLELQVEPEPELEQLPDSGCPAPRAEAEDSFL
- assay-details: PDGF-R Cellular Assay (ELISA)
- measurement-setup: human glioblastoma line U1242; PDGF-BB 100 ng/ml
readout: IC50

Q: Entry COC(=O)C(c1cccc(Br)c1)c1ncnc2cc(OC)c(OC)cc12 (stereo not shown) has what IC50?
A: > 100 µM

Recorded values, source patent US6103728A.
